targetOfAssay: androgen receptor (hAR) (Homo sapiens (Human))
Sequence (P10275 whole entry): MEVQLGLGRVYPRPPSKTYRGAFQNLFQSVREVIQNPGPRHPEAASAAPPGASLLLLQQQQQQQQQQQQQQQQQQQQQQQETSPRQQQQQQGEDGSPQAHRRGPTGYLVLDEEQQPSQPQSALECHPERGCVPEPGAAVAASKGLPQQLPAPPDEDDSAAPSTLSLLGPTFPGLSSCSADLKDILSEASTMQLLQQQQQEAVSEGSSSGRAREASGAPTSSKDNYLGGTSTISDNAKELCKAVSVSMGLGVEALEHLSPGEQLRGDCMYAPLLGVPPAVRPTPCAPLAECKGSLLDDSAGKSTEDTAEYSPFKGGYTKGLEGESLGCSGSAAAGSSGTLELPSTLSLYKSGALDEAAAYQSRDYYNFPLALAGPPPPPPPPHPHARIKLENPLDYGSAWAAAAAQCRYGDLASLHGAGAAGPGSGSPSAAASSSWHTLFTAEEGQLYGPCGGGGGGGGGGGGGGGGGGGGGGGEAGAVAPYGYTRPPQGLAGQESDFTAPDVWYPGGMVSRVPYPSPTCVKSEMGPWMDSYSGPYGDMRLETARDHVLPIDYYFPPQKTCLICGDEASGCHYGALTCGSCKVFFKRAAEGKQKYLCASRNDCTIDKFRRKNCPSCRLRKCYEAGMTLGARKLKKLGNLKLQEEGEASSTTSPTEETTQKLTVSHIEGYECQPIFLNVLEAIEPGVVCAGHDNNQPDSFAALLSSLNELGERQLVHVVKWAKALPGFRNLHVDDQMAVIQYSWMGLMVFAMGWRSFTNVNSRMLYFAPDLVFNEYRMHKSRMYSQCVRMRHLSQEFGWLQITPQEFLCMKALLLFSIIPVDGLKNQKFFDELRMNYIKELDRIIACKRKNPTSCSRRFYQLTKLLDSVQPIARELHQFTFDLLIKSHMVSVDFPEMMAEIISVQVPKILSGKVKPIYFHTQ
testSummary: Test of transcriptional activity (hAR / ARE-Luc dual-luciferase assay in CHO cells)
Format: cell-based
experimentalSetup: EC50 [nM] (mean ± SE), CHO cells with hAR and ARE-Luc, 24 hours; 10 nM DHT = 100%
reportedMetric: EC50 (nM)
Numeric only. Scale: nM

Some solved cases for reference:
> print(dat)
                                        smi                             targetofassay  readoutvalue
1  Cc1c(N2C[C@@H](COc3ccc(C#N)nc3)O[C@@H]2C(F)(F)F)ccc(C#N)c1Cl  androgen receptor (hAR) (Homo sapiens (Human))          10.6
2  CC(=O)Nc1ccc(OC[C@@H]2CN(c3ccc(C#N)c(C(F)(F)F)c3)[C@@H](C(F)(F)F)O2)cc1  androgen receptor (hAR) (Homo sapiens (Human))           0.7
3  COC(=O)Nc1ccc(NC(=O)[C@@H]2CN(c3ccc(C#N)c(C(F)(F)F)c3)[C@@H](C(F)(F)F)O2)cc1  androgen receptor (hAR) (Homo sapiens (Human))           231

input: # get_value(readout='EC50', item= N#Cc1cccc(NC(=O)[C@@H]2CN(c3ccc(C#N)c(C(F)(F)F)c3)[C@@H](C(F)(F)F)O2)c1 )
output: 44.2
